Molecular target: UniProt P48048
Sequence (P48048 whole entry): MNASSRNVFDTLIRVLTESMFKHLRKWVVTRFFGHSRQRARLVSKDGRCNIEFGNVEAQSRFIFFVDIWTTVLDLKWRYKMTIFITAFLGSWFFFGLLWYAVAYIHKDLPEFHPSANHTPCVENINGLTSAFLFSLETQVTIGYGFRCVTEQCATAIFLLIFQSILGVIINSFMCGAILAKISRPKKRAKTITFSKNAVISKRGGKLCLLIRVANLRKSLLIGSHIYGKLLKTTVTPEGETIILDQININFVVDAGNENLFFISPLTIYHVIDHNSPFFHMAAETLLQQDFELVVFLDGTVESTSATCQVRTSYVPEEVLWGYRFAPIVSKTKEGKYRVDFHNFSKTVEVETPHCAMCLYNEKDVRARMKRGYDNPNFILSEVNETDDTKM
quantity: IC50 (nM)
Your answer is read as nM, so omit the unit and give the number.

Given the entry Cc1c([C@H](O)CN2CCC3(CC2)CCN(C2=C(F)C(=O)OC2)CC3)ccc2c1COC2=O , what IC50 was observed with UniProt P48048? 7

###

assay: Cytotoxicity against human L02 cells measured after 24 hrs by MTT assay; format: toxicity, cell-based
quantity: IC50 at 24 h (µM)
Your answer is read as µM, so omit the unit and give the number.

Given the entry COC1OC(=O)C(Cl)=C1N1CCN(CCCCCC[C@H]2CN([C@@H]3OC4O[C@]5(C)CC[C@H]6[C@H](C)CC[C@@H]([C@H]3C)[C@@]46OO5)CCS2(=O)=O)CC1 (stereo partly specified) , report its measured IC50 at 24 h. 70

###

test system: MCF7; assay: Antiproliferative activity against human MCF7 cells measured after 48 hrs by MTT assay; assay type: cell-based; settings: MCF7, 48 h
quantity: pIC50
API: returns pIC50 as number; meaning -log10 of concentration in mol/L.

Given the entry COC1OC(=O)C(Cl)=C1N1CCN(CCCCCC[C@H]2CN([C@@H]3OC4O[C@]5(C)CC[C@H]6[C@H](C)CC[C@@H]([C@H]3C)[C@@]46OO5)CCS2(=O)=O)CC1 (stereo partly specified) , report its measured pIC50. 8.00
